- System: P. aeruginosa
- test_description: Minimum inhibitory concentration by microdilution assay
- Type: cell-based, Pseudomonas aeruginosa
- condition_notes: 37° C., 24 h
- Procedure: Staphylococcus aureus (ATCC 6538, gram-positive), Escherichia coli (ATCC 25922, gram-negative), Pseudomonas aeruginosa (gram-negative), and Candida albicans (ATCC 10231, yeast) were used as representative microorganisms to challenge the antimicrobial functions of the imidazolium salts. […] The oligomer compounds were dissolved in PBS at a concentration of 1 mg mL^1 and the minimal inhibitory concentrations (MICs) were determined by microdilution assay. […]
quantity_kind: MIC P.A.
Include the unit right after the number.

Illustrative cases are given below, each with its answer.
CCCCCCCCCCCCCCCC[n+]1ccn(Cc2ccc(C[n+]3ccn(Cc4ccc(C[n+]5ccn(Cc6ccccc6Cn6cc[n+](Cc7ccc(Cn8cc[n+](Cc9ccc(Cn%10cc[n+](CCCCCCCCCCCCCCCC)c%10)cc9)c8)cc7)c6)c5)cc4)c3)cc2)c1.[Br-].[Br-].[Cl-].[Cl-].[Cl-].[Cl-] [Compound 6] | 16 µg/mL
CCCCCCCCCC[n+]1ccn(Cc2ccc(C[n+]3ccn(Cc4ccc(C[n+]5ccn(Cc6ccccc6Cn6cc[n+](Cc7ccc(Cn8cc[n+](Cc9ccc(Cn%10cc[n+](CCCCCCCCCC)c%10)cc9)c8)cc7)c6)c5)cc4)c3)cc2)c1.[Br-].[Br-].[Cl-].[Cl-].[Cl-].[Cl-] [Compound 3] | 8 µg/mL
CCCCCCCCCCCC[n+]1ccn(Cc2ccc(C[n+]3ccn(Cc4ccc(C[n+]5ccn(Cc6ccccc6Cn6cc[n+](Cc7ccc(Cn8cc[n+](Cc9ccc(Cn%10cc[n+](CCCCCCCCCCCC)c%10)cc9)c8)cc7)c6)c5)cc4)c3)cc2)c1.[Br-].[Br-].[Cl-].[Cl-].[Cl-].[Cl-] [Compound 4] | 16 µg/mL
CCCCCCCCCCCCCC[n+]1ccn(Cc2ccc(C[n+]3ccn(Cc4ccc(C[n+]5ccn(Cc6ccccc6Cn6cc[n+](Cc7ccc(Cn8cc[n+](Cc9ccc(Cn%10cc[n+](CCCCCCCCCCCCCC)c%10)cc9)c8)cc7)c6)c5)cc4)c3)cc2)c1.[Br-].[Br-].[Cl-].[Cl-].[Cl-].[Cl-] [Compound 5] | 16 µg/mL
c1ccc(C[n+]2ccn(Cc3ccc(C[n+]4ccn(Cc5ccc(C[n+]6ccn(Cc7ccccc7Cn7cc[n+](Cc8ccc(Cn9cc[n+](Cc%10ccc(Cn%11cc[n+](Cc%12ccccc%12)c%11)cc%10)c9)cc8)c7)c6)cc5)c4)cc3)c2)cc1 [IBN-1, reference compound] | 31 µg/mL
[Br-].[Br-].[Cl-].[Cl-].[Cl-].[Cl-].c1ccc(Cn2cc[n+](Cc3ccc(Cn4cc[n+](Cc5ccc(Cn6cc[n+](CC7CCCCC7)c6)cc5)c4)cc3)c2)c(Cn2cc[n+](Cc3ccc(Cn4cc[n+](Cc5ccc(Cn6cc[n+](CC7CCCCC7)c6)cc5)c4)cc3)c2)c1 [Compound 7] | 16 µg/mL

If you can, please state the reported MIC P.A. value of CCCCCC[n+]1ccn(Cc2ccc(C[n+]3ccn(Cc4ccc(C[n+]5ccn(Cc6ccccc6Cn6cc[n+](Cc7ccc(Cn8cc[n+](Cc9ccc(Cn%10cc[n+](CCCCCC)c%10)cc9)c8)cc7)c6)c5)cc4)c3)cc2)c1.[Br-].[Br-].[Cl-].[Cl-].[Cl-].[Cl-] [Compound 1] .
8 µg/mL

Now try CCCCCCCC[n+]1ccn(Cc2ccc(C[n+]3ccn(Cc4ccc(C[n+]5ccn(Cc6ccccc6Cn6cc[n+](Cc7ccc(Cn8cc[n+](Cc9ccc(Cn%10cc[n+](CCCCCCCC)c%10)cc9)c8)cc7)c6)c5)cc4)c3)cc2)c1.[Br-].[Br-].[Cl-].[Cl-].[Cl-].[Cl-] [Compound 2] .
16 µg/mL

----------
- test_description: Gelling properties in solvents (tube inversion test)
- Type: physicochemical
- condition_notes: EtOH
quantity_kind: State in solvent

CCCCCCCCCCCCCCCC[n+]1ccn(Cc2ccc(C[n+]3ccn(Cc4ccc(C[n+]5ccn(Cc6ccccc6Cn6cc[n+](Cc7ccc(Cn8cc[n+](Cc9ccc(Cn%10cc[n+](CCCCCCCCCCCCCCCC)c%10)cc9)c8)cc7)c6)c5)cc4)c3)cc2)c1.[Br-].[Br-].[Cl-].[Cl-].[Cl-].[Cl-] | Gel
CCCCCC[n+]1ccn(Cc2ccc(C[n+]3ccn(Cc4ccc(C[n+]5ccn(Cc6ccccc6Cn6cc[n+](Cc7ccc(Cn8cc[n+](Cc9ccc(Cn%10cc[n+](CCCCCC)c%10)cc9)c8)cc7)c6)c5)cc4)c3)cc2)c1.[Br-].[Br-].[Cl-].[Cl-].[Cl-].[Cl-] | Gel

----------
- System: C. Albicans
- test_description: Minimum inhibitory concentration by microdilution assay
- Format: cell-based, Candida albicans (ATCC 10231)
- condition_notes: 24 h
quantity_kind: MIC C.A. (µg/mL)
Numeric answer only, unit µg/mL assumed.

Request the reported MIC C.A. associated with CCCCCCCCCCCCCCCC[n+]1ccn(Cc2ccc(C[n+]3ccn(Cc4ccc(C[n+]5ccn(Cc6ccccc6Cn6cc[n+](Cc7ccc(Cn8cc[n+](Cc9ccc(Cn%10cc[n+](CCCCCCCCCCCCCCCC)c%10)cc9)c8)cc7)c6)c5)cc4)c3)cc2)c1.[Br-].[Br-].[Cl-].[Cl-].[Cl-].[Cl-]
62

What about CCCCCC[n+]1ccn(Cc2ccc(C[n+]3ccn(Cc4ccc(C[n+]5ccn(Cc6ccccc6Cn6cc[n+](Cc7ccc(Cn8cc[n+](Cc9ccc(Cn%10cc[n+](CCCCCC)c%10)cc9)c8)cc7)c6)c5)cc4)c3)cc2)c1.[Br-].[Br-].[Cl-].[Cl-].[Cl-].[Cl-] ?
16

And the next one, CCCCCCCCCCCCCC[n+]1ccn(Cc2ccc(C[n+]3ccn(Cc4ccc(C[n+]5ccn(Cc6ccccc6Cn6cc[n+](Cc7ccc(Cn8cc[n+](Cc9ccc(Cn%10cc[n+](CCCCCCCCCCCCCC)c%10)cc9)c8)cc7)c6)c5)cc4)c3)cc2)c1.[Br-].[Br-].[Cl-].[Cl-].[Cl-].[Cl-] ?
31

Try this compound too: CCCCCCCCCCCC[n+]1ccn(Cc2ccc(C[n+]3ccn(Cc4ccc(C[n+]5ccn(Cc6ccccc6Cn6cc[n+](Cc7ccc(Cn8cc[n+](Cc9ccc(Cn%10cc[n+](CCCCCCCCCCCC)c%10)cc9)c8)cc7)c6)c5)cc4)c3)cc2)c1.[Br-].[Br-].[Cl-].[Cl-].[Cl-].[Cl-]
31

Same question, [Br-].[Br-].[Cl-].[Cl-].[Cl-].[Cl-].c1ccc(Cn2cc[n+](Cc3ccc(Cn4cc[n+](Cc5ccc(Cn6cc[n+](CC7CCCCC7)c6)cc5)c4)cc3)c2)c(Cn2cc[n+](Cc3ccc(Cn4cc[n+](Cc5ccc(Cn6cc[n+](CC7CCCCC7)c6)cc5)c4)cc3)c2)c1 this time
31

CCCCCCCC[n+]1ccn(Cc2ccc(C[n+]3ccn(Cc4ccc(C[n+]5ccn(Cc6ccccc6Cn6cc[n+](Cc7ccc(Cn8cc[n+](Cc9ccc(Cn%10cc[n+](CCCCCCCC)c%10)cc9)c8)cc7)c6)c5)cc4)c3)cc2)c1.[Br-].[Br-].[Cl-].[Cl-].[Cl-].[Cl-] , same question.
16

Note, next up: CCCCCCCCCC[n+]1ccn(Cc2ccc(C[n+]3ccn(Cc4ccc(C[n+]5ccn(Cc6ccccc6Cn6cc[n+](Cc7ccc(Cn8cc[n+](Cc9ccc(Cn%10cc[n+](CCCCCCCCCC)c%10)cc9)c8)cc7)c6)c5)cc4)c3)cc2)c1.[Br-].[Br-].[Cl-].[Cl-].[Cl-].[Cl-]
31

Record: c1ccc(C[n+]2ccn(Cc3ccc(C[n+]4ccn(Cc5ccc(C[n+]6ccn(Cc7ccccc7Cn7cc[n+](Cc8ccc(Cn9cc[n+](Cc%10ccc(Cn%11cc[n+](Cc%12ccccc%12)c%11)cc%10)c9)cc8)c7)c6)cc5)c4)cc3)c2)cc1 [IBN-1, reference compound]
31

----------
- System: E. coli
- test_description: Time kill kinetics
- Assay type: cell-based, Escherichia coli
- condition_notes: E. coli, 4MIC, two minutes
Simple rule here: Log reduction less than 3 is YES, otherwise NO.

Record excerpt, results attached:
CCCCCCCCCCCC[n+]1ccn(Cc2ccc(C[n+]3ccn(Cc4ccc(C[n+]5ccn(Cc6ccccc6Cn6cc[n+](Cc7ccc(Cn8cc[n+](Cc9ccc(Cn%10cc[n+](CCCCCCCCCCCC)c%10)cc9)c8)cc7)c6)c5)cc4)c3)cc2)c1.[Br-].[Br-].[Cl-].[Cl-].[Cl-].[Cl-] | NO
c1ccc(C[n+]2ccn(Cc3ccc(C[n+]4ccn(Cc5ccc(C[n+]6ccn(Cc7ccccc7Cn7cc[n+](Cc8ccc(Cn9cc[n+](Cc%10ccc(Cn%11cc[n+](Cc%12ccccc%12)c%11)cc%10)c9)cc8)c7)c6)cc5)c4)cc3)c2)cc1 [IBN-1, reference compound] | YES
CCCCCC[n+]1ccn(Cc2ccc(C[n+]3ccn(Cc4ccc(C[n+]5ccn(Cc6ccccc6Cn6cc[n+](Cc7ccc(Cn8cc[n+](Cc9ccc(Cn%10cc[n+](CCCCCC)c%10)cc9)c8)cc7)c6)c5)cc4)c3)cc2)c1.[Br-].[Br-].[Cl-].[Cl-].[Cl-].[Cl-] | YES
CCCCCCCCCC[n+]1ccn(Cc2ccc(C[n+]3ccn(Cc4ccc(C[n+]5ccn(Cc6ccccc6Cn6cc[n+](Cc7ccc(Cn8cc[n+](Cc9ccc(Cn%10cc[n+](CCCCCCCCCC)c%10)cc9)c8)cc7)c6)c5)cc4)c3)cc2)c1.[Br-].[Br-].[Cl-].[Cl-].[Cl-].[Cl-] | NO

Could you now look at the following compound, please?
# check: Log reduction < 3 for CCCCCCCC[n+]1ccn(Cc2ccc(C[n+]3ccn(Cc4ccc(C[n+]5ccn(Cc6ccccc6Cn6cc[n+](Cc7ccc(Cn8cc[n+](Cc9ccc(Cn%10cc[n+](CCCCCCCC)c%10)cc9)c8)cc7)c6)c5)cc4)c3)cc2)c1.[Br-].[Br-].[Cl-].[Cl-].[Cl-].[Cl-]
NO

Source listed as patent US10570097B2.
